Reported Size (nm) values for a set of compounds
experiment: LNP size and polydispersity index (PDI) by dynamic light scattering (DLS); format: physicochemical; conditions: Table 11; LNP with hEPO mRNA, Lipid:DSPC:Cholesterol:DMG-PEG2k 50:10:38.5:1.5 mol % (ALC-0315: 46.3:9.4:42.7:1.6), N:P ratio 6; HEPES/sodium chloride/sucrose buffer, stored at −80C
Give just the number in nm; leave the unit off.

CCCCCCCCC(CCCCCC)C(=O)OCCN(CCOC(=O)C(CCCCCC)CCCCCCCC)C(=O)C(C)CCNC.Cl (stereo not shown) [Compound 987d] :: 62.9

Please fill in: Size (nm) reported for CCCCCCCCC(CCCCCC)C(=O)OCCN(CCOC(=O)C(CCCCCC)CCCCCCCC)C(=O)C(C)CCN(C)CCC.Cl (stereo not shown) [Compound 987i] = 71.7

Please fill in: Size (nm) reported for CCCCCCCCCCCOC(=O)CCCCCN(CCO)CCCCCCCC(=O)OC(CCCCCCCC)CCCCCCCC [SM-102, reference compound] = 69.6

Please fill in: Size (nm) reported for CCCCCCCCC(CCCCCC)C(=O)OCCN(CCOC(=O)C(CCCCCC)CCCCCCCC)C(=O)C(C)CCN(C)CC.Cl (stereo not shown) [Compound 987f] = 79.4

Please fill in: Size (nm) reported for CCCCCCCCC(CCCCCC)C(=O)OCCCCCCN(CCCCO)CCCCCCOC(=O)C(CCCCCC)CCCCCCCC (stereo not shown) [ALC-0315, reference compound] = 74.7

Please fill in: Size (nm) reported for CCCCCCCCC(CCCCCC)C(=O)OCCN(CCOC(=O)C(CCCCCC)CCCCCCCC)C(=O)C(C)CCN1CCOCC1.Cl (stereo not shown) [Compound 987n] = 65.7

Please fill in: Size (nm) reported for CCCCCCCCC(CCCCCC)C(=O)OCCN(CCOC(=O)C(CCCCCC)CCCCCCCC)C(=O)C(C)CCN1CCCCC1.Cl (stereo not shown) [Compound 987m] = 73.7

Please fill in: Size (nm) reported for CCCCCCCCC(CCCCCC)C(=O)OCCN(CCOC(=O)C(CCCCCC)CCCCCCCC)C(=O)C(C)CCNCC.Cl (stereo not shown) [Compound 987e] = 70.5

Please fill in: Size (nm) reported for CCCCCCCCCC(CCCCCCCCC)C(=O)OCCN(CCOC(=O)C(CCCCCCCCC)CCCCCCCCC)C(=O)C(C)CCN(C)C.Cl (stereo not shown) [Compound 987c] = 72.0

Please fill in: Size (nm) reported for CCCCCCCCC(CCCCCC)C(=O)OCCN(CCOC(=O)C(CCCCCC)CCCCCCCC)C(=O)C(C)CCN(CCC)CCC.Cl (stereo not shown) [Compound 987k] = 76.7

Please fill in: Size (nm) reported for CCCCCCCCC(CCCCCC)C(=O)OCCN(CCOC(=O)C(CCCCCC)CCCCCCCC)C(=O)C(C)CCN(CC)CCC.Cl (stereo not shown) [Compound 987j] = 76.6

Please fill in: Size (nm) reported for CCCCCCCC(CCCCCCC)C(=O)OCCN(CCOC(=O)C(CCCCCCC)CCCCCCC)C(=O)C(C)CCN(C)C.Cl (stereo not shown) [Compound 987b] = 74.1

Please fill in: Size (nm) reported for CCCCCCCCC(CCCCCC)C(=O)OCCN(CCOC(=O)C(CCCCCC)CCCCCCCC)C(=O)C(C)CCN(CC)CC.Cl (stereo not shown) [Compound 987g] = 70.5

This collection of values is drawn from patent US20250268826A1.
